Source: the supplement of paper PMC9112550

shrunken log2 fold change reference
Tested on: Escherichia coli TOP10
Assay: shrunken log2 fold change of peptide-encoding DNA abundance (4.5 h post-induction vs induction); higher = less antimicrobial activity (less host growth inhibition)
Settings: time post-induction: 4.5 h; library: site-saturation at positions 5, 18, 19, 20
MEASURED ATTRIBUTE: shrunken log2 fold change

In [3]: df
Out[3]:
            sequence_entry                  target  observed
0  RRIRQRPPRLPRPRPRPKPSPRP  Escherichia coli TOP10     0.159
1  RRIRSRPPRLPRPRPRPLGMPRP  Escherichia coli TOP10    -0.243
2  RRIRARPPRLPRPRPRPKTNPRP  Escherichia coli TOP10     0.436
3  RRIRHRPPRLPRPRPRPFCGPRP  Escherichia coli TOP10     0.336
4  RRIRARPPRLPRPRPRPLMYPRP  Escherichia coli TOP10    -0.165
5  RRIRMRPPRLPRPRPRPSCGPRP  Escherichia coli TOP10     0.687
6  RRIRQRPPRLPRPRPRPRCHPRP  Escherichia coli TOP10     0.118
7  RRIRYRPPRLPRPRPRPWGVPRP  Escherichia coli TOP10    -0.242
8  RRIRDRPPRLPRPRPRPHEQPRP  Escherichia coli TOP10   -0.0062

* * *

System: Escherichia coli TOP10;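 note: peptides expressed intracellularly from a pBAD plasmid library in pooled LB shake-flask culture, induced with 0.3% L-arabinose, DNA abundance read by NGS, three biological replicates, DESeq2 with apeglm shrinkage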
Experiment: shrunken log2 fold change of peptide-encoding DNA abundance (4.5 h post-induction vs induction); higher = less antimicrobial activity (less host growth inhibition)
Conditions: time post-induction: 4.5 h; library: site-saturation at positions 5, 18, 19, 20
shrunken log2 fold change reference
MEASURED ATTRIBUTE: shrunken log2 fold change

             sequence_entry  observed
 0  RRIRARPPRLPRPRPRPMYYPRP    -0.433
 1  RRIRDRPPRLPRPRPRPDGPPRP    0.0462
 2  RRIRRRPPRLPRPRPRPSHLPRP     -0.21
 3  RRIRNRPPRLPRPRPRPLMYPRP    -0.158
 4  RRIRMRPPRLPRPRPRPQRCPRP     0.551
 5  RRIRARPPRLPRPRPRPKHVPRP    0.0861
 6  RRIRMRPPRLPRPRPRPQCNPRP     0.041
 7  RRIRYRPPRLPRPRPRPEFHPRP   0.00393
 8  RRIRIRPPRLPRPRPRPTITPRP    -0.996
 9  RRIRFRPPRLPRPRPRPMRGPRP     0.664
10  RRIRHRPPRLPRPRPRPRGDPRP     0.263
11  RRIRSRPPRLPRPRPRPFHEPRP    -0.263
12  RRIRKRPPRLPRPRPRPSLWPRP     0.187
13  RRIRNRPPRLPRPRPRPSHGPRP     0.108
14  RRIRCRPPRLPRPRPRPWCIPRP    -0.308
15  RRIRQRPPRLPRPRPRPAFIPRP    -0.239
16  RRIRRRPPRLPRPRPRPPKCPRP     0.423
17  RRIRPRPPRLPRPRPRPGHNPRP    -0.133
18  RRIRLRPPRLPRPRPRPNPKPRP   -0.0548
19  RRIRKRPPRLPRPRPRPYARPRP   -0.0148
20  RRIRTRPPRLPRPRPRPNIRPRP   -0.0979
21  RRIRSRPPRLPRPRPRPVSTPRP    -0.187
22  RRIRRRPPRLPRPRPRPMFKPRP     0.168
23  RRIRKRPPRLPRPRPRPGPYPRP     0.104
24  RRIRFRPPRLPRPRPRPFNCPRP    -0.113
25  RRIRGRPPRLPRPRPRPDPKPRP     0.649
26  RRIRHRPPRLPRPRPRPHRHPRP      -0.2
27  RRIRFRPPRLPRPRPRPSCRPRP    -0.145
28  RRIRDRPPRLPRPRPRPEDHPRP      1.08
29  RRIRLRPPRLPRPRPRPDGCPRP   -0.0283
30  RRIRFRPPRLPRPRPRPTGNPRP    -0.245
31  RRIRDRPPRLPRPRPRPKIVPRP    -0.198
32  RRIRERPPRLPRPRPRPRSDPRP    -0.323
33  RRIRTRPPRLPRPRPRPDMKPRP   -0.0377
34  RRIRKRPPRLPRPRPRPQMSPRP    -0.164
35  RRIRYRPPRLPRPRPRPEMDPRP    -0.338
36  RRIRWRPPRLPRPRPRPNLVPRP   -0.0198
37  RRIRRRPPRLPRPRPRPMIQPRP     0.107
38  RRIRRRPPRLPRPRPRPQPKPRP     0.761
39  RRIRDRPPRLPRPRPRPHLVPRP   -0.0562
40  RRIRCRPPRLPRPRPRPTRSPRP     0.643
41  RRIRPRPPRLPRPRPRPMYGPRP    -0.182
42  RRIRGRPPRLPRPRPRPFWKPRP    0.0889
43  RRIRLRPPRLPRPRPRPKAFPRP    0.0112
44  RRIRQRPPRLPRPRPRPVWGPRP     0.225
45  RRIRIRPPRLPRPRPRPMMDPRP    -0.132
46  RRIRIRPPRLPRPRPRPGCWPRP     0.312
47  RRIRTRPPRLPRPRPRPIFVPRP     0.144
48  RRIRQRPPRLPRPRPRPWNKPRP     -0.34
49  RRIRDRPPRLPRPRPRPWPCPRP     0.462
50  RRIRIRPPRLPRPRPRPEYEPRP   -0.0111
51  RRIRCRPPRLPRPRPRPYWRPRP   -0.0756
52  RRIRRRPPRLPRPRPRPDVTPRP   -0.0312
53  RRIRERPPRLPRPRPRPFIEPRP     -0.59
54  RRIRDRPPRLPRPRPRPQEAPRP   -0.0652
